Tested on: Mast/stem cell growth factor receptor Kit (Homo sapiens, UniProt P10721, T670I/V559D)
Sequence (P10721 26-976 V559D/T670I limits assumed): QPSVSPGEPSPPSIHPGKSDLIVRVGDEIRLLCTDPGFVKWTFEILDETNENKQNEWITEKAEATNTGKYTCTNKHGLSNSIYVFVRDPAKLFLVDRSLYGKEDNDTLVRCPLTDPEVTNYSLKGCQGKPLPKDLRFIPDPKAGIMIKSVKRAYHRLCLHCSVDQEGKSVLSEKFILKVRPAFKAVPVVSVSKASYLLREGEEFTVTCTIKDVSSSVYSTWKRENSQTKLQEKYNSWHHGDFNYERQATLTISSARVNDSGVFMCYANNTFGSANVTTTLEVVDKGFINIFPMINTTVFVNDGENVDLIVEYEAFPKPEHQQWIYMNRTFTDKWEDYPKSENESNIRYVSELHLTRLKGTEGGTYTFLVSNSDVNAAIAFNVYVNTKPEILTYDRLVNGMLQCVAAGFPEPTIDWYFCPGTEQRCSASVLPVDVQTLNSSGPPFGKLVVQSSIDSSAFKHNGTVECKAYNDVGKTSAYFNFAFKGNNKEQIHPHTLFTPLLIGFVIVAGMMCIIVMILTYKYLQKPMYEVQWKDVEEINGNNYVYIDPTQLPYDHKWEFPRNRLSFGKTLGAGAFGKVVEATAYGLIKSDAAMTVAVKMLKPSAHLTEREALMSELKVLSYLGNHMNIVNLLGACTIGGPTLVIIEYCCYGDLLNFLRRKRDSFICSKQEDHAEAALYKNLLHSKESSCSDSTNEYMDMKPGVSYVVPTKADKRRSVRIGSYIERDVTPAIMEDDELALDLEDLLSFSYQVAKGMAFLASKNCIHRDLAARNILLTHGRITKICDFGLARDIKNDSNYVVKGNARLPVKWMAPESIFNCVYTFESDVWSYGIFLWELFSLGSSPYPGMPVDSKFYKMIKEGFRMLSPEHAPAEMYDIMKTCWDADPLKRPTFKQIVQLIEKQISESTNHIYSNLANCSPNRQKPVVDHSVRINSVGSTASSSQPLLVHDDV
Metric name: IC50 (nM)

# example entries with known answers
Smiles input: Cc1ccc(C(=O)Nc2ccc(CN3CCN(C)CC3)c(C(F)(F)F)c2)cc1C#Cc1cnc(N)nc1
Number: 21.4

Smiles input: Cc1ccc(C(=O)Nc2ccc(CN3CCN(C)CC3)c(C(F)(F)F)c2)cc1C#Cc1ccn2cnnc2c1
Number: 2150

Smiles input: Cc1ccc(C(=O)Nc2ccc(CN3CCN(C)CC3)c(C(F)(F)F)c2)cc1C#Cc1cccnc1
Number: 24

Smiles input: COc1cccnc1C#Cc1cc(C(=O)Nc2ccc(CN3CCN(C)CC3)c(C(F)(F)F)c2)ccc1C
Number: 159

Smiles input: Cc1ccc(C(=O)Nc2ccc(CN3CCN(C)CC3)c(C(F)(F)F)c2)cc1C#Cc1cnc(N)c(C)c1
Number: 29.8

Smiles input: Cc1ccc(C(=O)Nc2ccc(CN3CCN(C)CC3)c(C(F)(F)F)c2)cc1C#Cc1ccn2ccnc2c1
Number: 72

Smiles input: COCCNc1ncc(C#Cc2cc(C(=O)Nc3ccc(CN4CCN(C)CC4)c(C(F)(F)F)c3)ccc2C)cn1
Number: 107

Smiles input: Cc1ccc(C(=O)Nc2ccc(CN3CCN(C)CC3)c(C(F)(F)F)c2)cc1C#Cc1cnc(N)c2ccccc12
Number: 18.2

Smiles input: Cc1c(C#Cc2cnc(N)nc2)cccc1C(=O)Nc1ccc(CN2CCN(C)CC2)c(C(F)(F)F)c1
Number: 21

Smiles input: Cc1ccc(C(=O)Nc2ccc(CN3CCN(C)CC3)c(C(F)(F)F)c2)cc1C#Cc1ccccn1
Number: 116

A. Cc1ccc(C(=O)Nc2ccc(CN3CCN(C)CC3)c(C(F)(F)F)c2)cc1C#Cc1ccc(N)nn1
B. Cc1ccc(C(=O)Nc2ccc(CN3CCN(C)CC3)c(C(F)(F)F)c2)cc1C#Cc1ccc(N)nc1
Input: Which value of IC50 is smaller, the one for A or the one for B ? Pick one; state its label.
Output: B

---

In this section, each of the compounds is paired with its reported GI50.
System: GISTT1
Protocol summary: Cytotoxicity against human GISTT1 cells harboring KIT D816E mutant assessed as cell growth inhibition after 72 hrs by CellTiterGlo assay
Format: functional
Condition info: GISTT1, 72 h
Please state the figure in nM; there is no need to write the unit.

Smiles input: Cc1ccc(C(=O)Nc2ccc(CN3CCN(C)CC3)c(F)c2)cc1C#Cc1cnc(N)nc1
Tested on: GISTT1
GI50, nM: 904
//
Smiles input: Cc1ccc(C(=O)Nc2ccc(CN3CCN(C)CC3)c(C(F)(F)F)c2)cc1C#Cc1ccn2ccnc2c1
Tested on: GISTT1
GI50, nM: 2290
//
Smiles input: Cc1ccc(C(=O)Nc2ccc(CN3CCN(C)CC3)c(C(F)(F)F)c2)cc1C#Cc1cnc(N)c(C)c1
Tested on: GISTT1
GI50, nM: 474

In plain terms, COCCNc1ncc(C#Cc2cc(C(=O)Nc3ccc(CN4CCN(C)CC4)c(C(F)(F)F)c3)ccc2C)cn1 has a documented GI50 of 704

---

Test system: Mast/stem cell growth factor receptor Kit (Homo sapiens), P10721 [V654A]
Sequence (P10721 whole entry V654A): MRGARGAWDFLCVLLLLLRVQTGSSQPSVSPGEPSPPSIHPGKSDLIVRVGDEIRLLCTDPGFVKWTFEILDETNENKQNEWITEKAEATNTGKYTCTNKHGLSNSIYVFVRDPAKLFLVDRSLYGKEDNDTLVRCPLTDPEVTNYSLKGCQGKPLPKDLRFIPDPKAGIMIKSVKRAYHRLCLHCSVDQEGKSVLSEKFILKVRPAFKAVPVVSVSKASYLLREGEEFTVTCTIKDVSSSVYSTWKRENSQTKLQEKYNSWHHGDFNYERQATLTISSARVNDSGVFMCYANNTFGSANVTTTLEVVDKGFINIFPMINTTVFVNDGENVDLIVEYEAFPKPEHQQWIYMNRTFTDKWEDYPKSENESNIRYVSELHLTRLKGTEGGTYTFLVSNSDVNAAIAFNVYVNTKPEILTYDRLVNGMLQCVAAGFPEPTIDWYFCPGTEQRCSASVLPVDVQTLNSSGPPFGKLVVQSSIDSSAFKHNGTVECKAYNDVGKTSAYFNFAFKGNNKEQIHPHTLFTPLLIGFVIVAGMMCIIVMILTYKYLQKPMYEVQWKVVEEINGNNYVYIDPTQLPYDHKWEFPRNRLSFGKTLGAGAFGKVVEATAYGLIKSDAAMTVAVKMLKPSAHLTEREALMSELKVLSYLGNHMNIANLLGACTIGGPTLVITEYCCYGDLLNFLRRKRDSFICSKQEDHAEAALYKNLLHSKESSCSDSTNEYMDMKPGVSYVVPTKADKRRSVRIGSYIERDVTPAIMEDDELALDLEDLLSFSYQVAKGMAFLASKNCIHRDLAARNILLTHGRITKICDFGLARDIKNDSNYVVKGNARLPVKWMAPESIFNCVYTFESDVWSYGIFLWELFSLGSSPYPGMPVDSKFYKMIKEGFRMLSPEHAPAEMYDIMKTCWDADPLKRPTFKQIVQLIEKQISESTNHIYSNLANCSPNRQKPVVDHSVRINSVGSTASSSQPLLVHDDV
Condition info: GIST430
Calls of active or inactive are those of the source. The calls are words filed in the database; no cut-off is given here.
Metric name: GI50

Smiles input: Cc1c(C#Cc2cnc(N)nc2)cccc1C(=O)Nc1ccc(CN2CCN(C)CC2)c(C(F)(F)F)c1
Tested on: Mast/stem cell growth factor receptor Kit (Homo sapiens), P10721 [V654A]
Metric name: GI50
Result: 0.308 µM

Smiles input: Cc1ccc(C(=O)Nc2ccc(CN3CCN(C)CC3)cc2)cc1C#Cc1cnc(N)nc1
Tested on: Mast/stem cell growth factor receptor Kit (Homo sapiens), P10721 [V654A]
Metric name: GI50
Result: 2.06 µM

Smiles input: Cc1ccc(C(=O)Nc2ccc(CN3CCN(C)CC3)c(C(F)(F)F)c2)cc1C#Cc1cnc(N)c2ccccc12
Tested on: Mast/stem cell growth factor receptor Kit (Homo sapiens), P10721 [V654A]
Metric name: GI50
Result: 0.926 µM

Smiles input: Cc1ccc(C(=O)Nc2ccc(CN3CCN(C)CC3)c(C(F)(F)F)c2)cc1C#Cc1cnc(N)nc1
Tested on: Mast/stem cell growth factor receptor Kit (Homo sapiens), P10721 [V654A]
Metric name: GI50
Result: 0.051 µM

In plain terms, Cc1ccc(C(=O)Nc2ccc(CN3CCN(C)CC3)cc2)cc1C#Cc1ccc(N)nn1 has a documented GI50 of inactive

In plain terms, CNC(=O)c1cc(Oc2ccc(NC(=O)Nc3ccc(Cl)c(C(F)(F)F)c3)c(F)c2)ccn1 has a documented GI50 of 3 µM

In plain terms, COc1cccnc1C#Cc1cc(C(=O)Nc2ccc(CN3CCN(C)CC3)c(C(F)(F)F)c2)ccc1C has a documented GI50 of 0.564 µM

In plain terms, Cc1ccc(C(=O)Nc2ccc(CN3CCN(C)CC3)c(C(F)(F)F)c2)cc1C#Cc1ccccn1 has a documented GI50 of 0.697 µM

In plain terms, C#Cc1cc(C(=O)Nc2ccc(CN3CCN(C)CC3)c(C(F)(F)F)c2)ccc1C has a documented GI50 of inactive

---

Protocol summary: Cytotoxicity against human GIST48B cells assessed as cell growth inhibition after 72 hrs by CellTiterGlo assay
Format: cell-based
Condition info: GIST48B cells
Metric name: GI50 at 72 h (µM)
Please state the figure in µM; there is no need to write the unit.

# example entries with known answers
Smiles input: Cc1ccc(C(=O)Nc2ccc(CN3CCN(C)CC3)c(C(F)(F)F)c2)cc1C#Cc1ccn2ccnc2c1
Unit abbrev: µM
GI50 at 72 h: 3.04
--
Smiles input: Cc1ccc(C(=O)Nc2ccc(CN3CCN(C)CC3)c(F)c2)cc1C#Cc1cccnc1
Unit abbrev: µM
GI50 at 72 h: 12
--
Smiles input: Cc1ccc(C(=O)Nc2ccc(CN3CCN(C)CC3)c(F)c2)cc1C#Cc1cnc(N)nc1
Unit abbrev: µM
GI50 at 72 h: 8.29
--
Smiles input: COCCNc1ncc(C#Cc2cc(C(=O)Nc3ccc(CN4CCN(C)CC4)c(C(F)(F)F)c3)ccc2C)cn1
Unit abbrev: µM
GI50 at 72 h: 5.13
--
Smiles input: COc1cccnc1C#Cc1cc(C(=O)Nc2ccc(CN3CCN(C)CC3)c(C(F)(F)F)c2)ccc1C
Unit abbrev: µM
GI50 at 72 h: 3.79
--
Smiles input: Cc1c(C#Cc2cnc(N)nc2)cccc1C(=O)Nc1ccc(CN2CCN(C)CC2)c(C(F)(F)F)c1
Unit abbrev: µM
GI50 at 72 h: 15.8
--
Smiles input: Cc1ccc(C(=O)Nc2ccc(CN3CCN(C)CC3)c(C(F)(F)F)c2)cc1I
Unit abbrev: µM
GI50 at 72 h: 4.88
--
Smiles input: Cc1ccc(C(=O)Nc2ccc(CN3CCN(C)CC3)cc2)cc1C#Cc1cnc(N)nc1
Unit abbrev: µM
GI50 at 72 h: 6.88
--
Smiles input: Cc1ccc(C(=O)Nc2ccc(CN3CCN(C)CC3)c(C(F)(F)F)c2)cc1C#Cc1ccc(N)nc1
Unit abbrev: µM
GI50 at 72 h: 2.24
--
Smiles input: Cc1ccc(C(=O)Nc2ccc(CN3CCN(C)CC3)c(C(F)(F)F)c2)cc1C#Cc1cnc(N)nc1
Unit abbrev: µM
GI50 at 72 h: 2.02

In plain terms, Cc1ccc(C(=O)Nc2ccc(CN3CCN(C)CC3)c(C(F)(F)F)c2)c(F)c1I has a documented GI50 at 72 h of 3.63

In plain terms, Cc1ccc(C(=O)Nc2ccc(CN3CCN(C)CC3)c(C(F)(F)F)c2)cc1C#Cc1cccnc1 has a documented GI50 at 72 h of 2.71

In plain terms, Cc1ccc(C(=O)Nc2ccc(CN3CCN(C)CC3)c(C(F)(F)F)c2)cc1C#Cc1cnc(N)c2ccccc12 has a documented GI50 at 72 h of 2.06

In plain terms, Cc1ccc(C(=O)Nc2ccc(CN3CCN(C)CC3)c(C(F)(F)F)c2)cc1C#Cc1ccc(OCc2ccccc2)cn1 has a documented GI50 at 72 h of 1.86

---

pIC50: −log10 of the molar value.
Reported pIC50 values, Mast/stem cell growth factor receptor Kit (Homo sapiens, UniProt P10721, V559D/V654A).
Metric name: pIC50

# example entries with known answers
Smiles input: Cc1ccc(C(=O)Nc2ccc(CN3CCN(C)CC3)c(C(F)(F)F)c2)cc1C#Cc1cnc(N)nc1
Number: 6.61
--
Smiles input: Cc1ccc(C(=O)Nc2ccc(CN3CCN(C)CC3)c(C(F)(F)F)c2)cc1C#Cc1ccc(N)nc1
Number: 6.04

A. Cc1ccc(C(=O)Nc2ccc(CN3CCN(C)CC3)c(C(F)(F)F)c2)cc1C#Cc1cnc(N)c(C)c1
B. Cc1ccc(C(=O)Nc2ccc(CN3CCN(C)CC3)c(C(F)(F)F)c2)cc1C#Cc1cnc(N)c2ccccc12
Input: Two entries are listed, A and B . Which one carries the higher pIC50? Pick one; state its label.
Output: B
(B: 6.50, A: 6.11)
